Where these numbers come from: PubChem BioAssay (NCI)

Tested on: A498 renal
Assay: NCI-60 one-dose screen, 48 h
Conditions: 10 µM unless noted
The panel holds about 83,000 compounds, 20% with a hit somewhere; the sample as a whole holds those more often. The source made the active and inactive calls. How the source made its calls: active means growth percent below 10; inactive means the rest.
Give your call using only these classes: 1.0 = active, 0.0 = inactive

>  <RECORD_SMILES>
CNC(=O)c1cc(Oc2cccc3nc(NC(=O)Nc4cc(C(F)(F)F)cc(C(F)(F)F)c4)ccc23)ccn1

>  <CLASS>
1.0

$$$$

What did the test return for CC1(C)CC[C@]23CC[C@]4(C)[C@H](CC[C@@H]5[C@@]6(C)C/C(=C/c7ccncc7)C(=O)C(C)(C)[C@@H]6CC[C@]54C)[C@H]2[C@H]1OC3=O ?
0.0

What did the test return for O=C1CN(Cc2ccc(C(=O)NO)cc2)C(=O)[C@@H](Cc2ccccc2)N1 ?
0.0

What did the test return for Cc1ccc(S(=O)(=O)NCCCNc2nccc(-c3c(-c4cccc(F)c4)nc4occn34)n2)cc1 ?
0.0

---

Test system: 786-0 renal
Experiment: NCI-60 one-dose screen, 48 h
Details: 10 µM unless noted
The panel holds about 83,000 compounds, 20% with a hit somewhere; the sample as a whole holds those more often. Active and inactive are the calls of the source. The calls were made as follows: active = growth percent below 10; inactive = the rest.
Give your call using only these classes: active, inactive

What did the test return for C=C(C)[C@@H]1CC[C@]2(COCCC#N)CC[C@]3(C)[C@H](CC[C@@H]4[C@@](C)(CCCNCCC#N)[C@H](C(=C)C)CC[C@]43C)[C@@H]12 ?
inactive

What did the test return for CC[C@]12C=CCN3CC[C@@]4(c5ccc(OC)cc5N(C)[C@H]4[C@@](O)(C(=O)OC)[C@@H]1OC(=O)CCC(=O)O[C@H]1CC[C@H]4[C@@H]5CCC6=CC(=O)CC[C@@H]6[C@H]5CC[C@]14C)[C@@H]32 ?
inactive

What did the test return for C=C(C)[C@@H]1CC[C@]2(C(N)=O)CC[C@]3(C)[C@H](CC[C@@H]4[C@@]5(C)C/C(=C/c6cccnc6)[C@H](O)C(C)(C)[C@@H]5CC[C@]43C)[C@@H]12 ?
inactive

---

Test system: NCI/ADR-RES ovarian
Experiment: NCI-60 one-dose screen, 48 h
Conditions: 10 µM unless noted
Protocol: Growth inhibition of the NCI/ADR-RES human […] tumor cell line is measured as a screen for anti-cancer activity. Cells are grown in 96 well plates and exposed to the test compound for 48 hours. Compounds are tested at a single concentration, which is 10^-5 M for most compounds. The reported endpoint is percent growth (GI% or GIPRCNT), where numbers from 0 - 100% represent growth inhibition, and numbers from -100% - 0 represent cell death. For example, a value of 40 represents 60% growth inhibition. […]
The panel holds about 83,000 compounds, 20% with a hit somewhere; the sample as a whole holds those more often. Calls of active or inactive are those of the source. The calls were made as follows: active = growth percent below 10; inactive = the rest.
Give your call using only these classes: active, inactive

Past entries and their recorded results:
>  <RECORD_SMILES>
COc1cc(/C=C/C(=O)/C=C/c2ccc(-n3ccnc3)cc2)ccc1O

>  <SUBJECT_OF_TEST>
NCI/ADR-RES ovarian

>  <CLASS>
inactive

$$$$
>  <RECORD_SMILES>
COc1cc(C)cc2oc3oc(=O)c(C(=O)c4cc5cc(Br)ccc5o4)cc3c(=O)c12

>  <SUBJECT_OF_TEST>
NCI/ADR-RES ovarian

>  <CLASS>
inactive

$$$$
>  <RECORD_SMILES>
Oc1cc(Nc2ccnc3cc(Cl)ccc23)c2ncccc2c1

>  <SUBJECT_OF_TEST>
NCI/ADR-RES ovarian

>  <CLASS>
inactive

$$$$

What did the test return for Cc1ccc2c(c1)/C(=N\N=C/c1cn(C(C)C)c3ccccc13)C(=O)N2 ?
inactive

What did the test return for C#CCNC(=O)CC[C@@H](C)[C@H]1CC[C@H]2[C@@H]3CC[C@@H]4CC(=O)CC[C@]4(C)[C@H]3CC[C@]12C ?
active

What did the test return for O=C(Nc1cccc(C2=NCCN2)c1)c1cccc(C(=O)Nc2cccc(C3=NCCN3)c2)c1 ?
inactive

What did the test return for CC(C)(C)OC(=O)N1C=C/C(=C\Cn2cc(-c3ccccc3)nn2)CC1 ?
inactive

What did the test return for COc1cc(OC)cc(C(=O)Nc2cc(-c3cccnc3)nc(NCCCN3CCOCC3)n2)c1 ?
inactive

What did the test return for c1ccc(-c2n[nH]c(-c3ccccn3)n2)nc1 ?
inactive

What did the test return for COc1ncc(-c2ccc3nccc(C#CCCCCC(=O)NO)c3c2)cc1NS(=O)(=O)c1ccc(F)cc1F ?
inactive
